# target.or.system: Solute carrier family 2, facilitated glucose transporter member 1 (Homo sapiens) (UniProt P11166)
# Sequence (P11166 whole entry): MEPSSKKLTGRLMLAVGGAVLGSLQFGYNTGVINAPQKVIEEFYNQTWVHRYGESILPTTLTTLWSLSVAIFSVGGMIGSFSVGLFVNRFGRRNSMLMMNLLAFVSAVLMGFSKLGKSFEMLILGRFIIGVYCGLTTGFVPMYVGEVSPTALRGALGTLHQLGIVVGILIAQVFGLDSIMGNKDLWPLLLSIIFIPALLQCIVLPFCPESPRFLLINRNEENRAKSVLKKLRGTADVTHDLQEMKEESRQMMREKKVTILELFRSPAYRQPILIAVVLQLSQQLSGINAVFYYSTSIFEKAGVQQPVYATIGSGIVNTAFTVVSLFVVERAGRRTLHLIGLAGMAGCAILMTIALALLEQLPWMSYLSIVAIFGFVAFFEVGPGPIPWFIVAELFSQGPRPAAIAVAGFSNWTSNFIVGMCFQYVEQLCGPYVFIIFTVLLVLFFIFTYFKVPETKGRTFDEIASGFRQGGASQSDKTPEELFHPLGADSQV
# test.protocol: ST_JUDE_LEISH: Cytotoxicity at 2uM final concentration against transgenic Leishmania Mexicana promastigotes LmGLUT1 that are glucose transport deficient and complemented with the human glucose transporter GLUT1. Activity is measured by DNA content using SYBR green in vitro
# Assay type: functional
recorded.metric: inhibition (%)
Numbers only here, please. The scale is %.

Query string: inhibition for Cc1cccc(CNc2nc(C)cc(N[C@@H](Cc3ccccc3)C(=O)NCCc3ccccc3)n2)c1 ?
Result string: 3.88

Query string: inhibition for Oc1ccc(CCNc2nc(NCc3cccc(OCc4cccc(F)c4)c3)nc(N3CCNCC3)n2)cc1 ?
Result string: -1.28

Query string: inhibition for CN=C(S)NN=C(C)c1ccccn1 ?
Result string: 2.61

Query string: inhibition for NCCNC(=O)c1ccc(-c2cnc3[nH]cc(-c4ccc(C(N)=O)cc4)c3c2)cc1 ?
Result string: 3.65

Recorded values, source ChEMBL document CHEMBL3433997.
